- Target Of Assay: Ataxin-2 (Homo sapiens)
- Assay Summary: qHTS for Inhibitors of ATXN expression.
- Type: functional
Among all 400,000 compounds or so, about 2,100 (0.53%) were called active. Not shown: some 14% with an inconclusive outcome. The rule behind the calls is not given here. What follows is part of a selection rich in actives, with near analogues and random picks from the rest.
// one of label 1 for active, label 0 for inactive, no free text

[in] Query: recorded result category for NC(COCc1ccccc1)c1csc(NC(=O)Nc2cccc(Cl)c2)n1 (configuration not stated) in this test
[out] label 1

[in] Assay outcome for CCCc1ccc(S(=O)(=O)N2CCC(c3nnc(-c4cccc(C)c4)o3)CC2)cc1 : what was it?
[out] label 1

[in] What is the recorded call for this molecule in the test? O=C(Nc1cccc(Cl)c1)NC1CC2CCC(C1)N2Cc1ccco1 (configuration not stated)
[out] label 0

[in] Given CCO/C(O)=C(\C#N)c1cc(C)c2ccccc2n1 , state the outcome it received in this test.
[out] label 0

[in] Give the logged outcome of this assay for the following molecule: Cc1cccc(Cn2ncc(Cl)c(Cl)c2=O)c1
[out] label 1

[in] Record lookup: outcome of this test for Cc1c(C#N)c(NC(=O)CCl)n(Cc2cccs2)c1C ?
[out] label 1

[in] What is the recorded call for this molecule in the test? CCCCn1c(=O)[nH]c2nc3cc(NC(C)=O)ccc3nc2c1=O
[out] label 0

[in] Hey, what did the test say about CC1=C(C(=O)c2ccccc2)C(c2ccc(O)cc2)NC(S)=N1 (configuration not stated) ?
[out] label 0

[in] Per the assay record, what outcome was assigned to FC(F)(F)c1nnc(-c2ccccc2)nc1Sc1ccc(Cl)cc1 ?
[out] label 1

[in] Answer briefly: the call reported for Cc1ccc(S(=O)(=O)c2cc3ccc(O)cc3oc2=O)cc1C in this assay.
[out] label 0

[in] Hi, sorry to bother you, what did the test record for COc1ccc(C2CC(c3ccc(C(F)(F)F)cc3)=NN2c2ccc(S(N)(=O)=O)cc2)cc1 (configuration not stated) ?
[out] label 0

[in] # outcome recorded in this test, key = Cc1cc(C(=O)CN2C(=O)c3cccc(N)c3C2=O)c(C)n1Cc1cccs1
[out] label 0

[in] What is the recorded call for this molecule in the test? Cc1ccc(Cn2c(=O)c3c(ncn3C)n(C)c2=O)cc1
[out] label 0

[in] I would be grateful if you could indicate the recorded call for COc1ccc(CN2C(=O)c3cccnc3C2=O)cc1S(=O)(=O)N1CCOc2ccc(C)cc21 .
[out] label 0

[in] Which outcome did this test record for the molecule COc1ccc(-c2nnc(C3CCN(S(=O)(=O)c4ccccc4)CC3)o2)cc1 ?
[out] label 1

[in] Dear all, I need the recorded test outcome for COc1cc(/C=C(/C#N)c2nc3ccccc3[nH]2)ccc1OCC(=O)Nc1ccccc1C(C)C , thank you.
[out] label 0

[in] Called result for COc1ccc(S(=O)(=O)NCc2ccco2)cc1C(=O)N1CCOCC1
[out] label 0

[in] Status in this test for COc1ccc(C2=CC(c3ccc(C)cc3)n3nnnc3N2)cc1 (configuration not stated) ?
[out] label 0

[in] Please let me know the test result on file for Cc1ccc2nc(N3CCN(C(=O)CCCC(=O)O)CC3)nc(-c3ccccc3)c2c1 .
[out] label 0

[in] Recorded call for Cc1c2ccccc2nc2c(F)c(N(C)C)c(F)c(F)c12 ?
[out] label 0

[in] Could you check what this test reported for Cc1cc(/C=C(/C#N)c2nc3ccccc3[nH]2)c(C)n1-c1ccccc1C(=O)O ?
[out] label 0

[in] Which result was noted for this molecule in the test: COc1ccc(OC)c(S(=O)(=O)Nc2ccc3c(c2)OCCO3)c1
[out] label 0

The measurements presented in this section are drawn from ChEMBL document CHEMBL1201862.
